tested on: NCI-H522 lung; assay: NCI tumour cell line growth inhibition, 48 h
Assignment: determine reported TGI for the given molecules.

**Q:** Need TGI of O=C1c2cccc3c([N+](=O)[O-])ccc(c23)C(=O)N1CCCCl , thanks.
**A:** > 10 µM

**Q:** Would you kindly repeat that for OC1C2CCC3C2CC(C(O)(c2ccccc2)c2ccccc2)C13 (stereo unspecified) ?
**A:** > 100 µM

**Q:** Would you kindly repeat that for NC(CCCNc1ccc(O)cc1)C(=O)O (stereo unspecified) ?
**A:** > 100 µM

**Q:** Would you kindly repeat that for O=S(Nc1ccccc1)c1ccccc1Oc1ccccc1 (stereo unspecified) ?
**A:** > 100 µM

**Q:** Would you kindly repeat that for CC(=O)Oc1c(C)cc2c(c1C)C(C)(C)CN2C(=O)C(C)(C)C ?
**A:** > 100 µM

**Q:** Would you kindly repeat that for NS(=O)(=O)c1ccc(C(=O)O)cc1 ?
**A:** > 100 µM

src = PubChem BioAssay (NCI)
